endpointName: melting point

The examples below pair each entry with its known result.
# molecule, endpointName, result
measured = [
    ("O=Cc1ccc(-c2cc3c4c(c2)cc(F)n4C(=O)CNC3)cc1", "melting point", "212 to 214 °C"),
    ("Cc1nc(Sc2ccc(C(=O)O)cn2)sc1CC(=O)O", "melting point", "226 to 228 °C"),
    ("CC(C)CC(NC(=O)COc1cccc2ccccc12)C(=O)NC(Cc1ccccc1)C(=O)CSCc1ccco1 (stereo not drawn)", "melting point", "118 to 120 °C"),
    ("COc1ccc(-c2csc(Nc3cc(C)ccn3)n2)cc1OC", "melting point", "211 to 213 °C"),
    ("CCOC(=O)c1cn(CC)c2nc(N3CCN(C=O)CC3)ncc2c1=O", "melting point", "195 °C"),
]

Identify the reported melting point for the following entry. O=C(NC1CNCCn2c1nc(-c1ccncn1)cc2=O)c1ccccn1 (racemic) 256 to 258 °C

State, in one line, measured melting point of CCOc1cc2c(Nc3cc(OC)c(Cl)cc3Cl)c(C#N)cnc2cc1I 213 to 215 °C

Dear colleague, please send me the reported melting point for CC(C)Cn1cnc2c(N)nc3ccc(CCc4ccncc4)cc3c21 when you can. 221 to 224 °C

Please indicate melting point recorded for Nc1ccc(CCc2ccc(OCc3ccccc3)c(OCc3ccccc3)c2)cc1 97 to 101 °C

Given the molecule Oc1ccc(CCCc2ccc(O)cc2O)cc1 , write its reported melting point. 92 to 93 °C
